Hey, just so you know, these numbers are from patent US8796272B2.

Would you kindly list log10(IC50) for each of these compounds?
# system under test: human type 1 glycine transporter (GlyT1) (Homo sapiens, UniProt P48067)
# Construct: T98G cells (glioma cells) expressing human type 1 glycine transporter (GlyT1) were used; endogenous in cells
# Sequence (P48067 1-706): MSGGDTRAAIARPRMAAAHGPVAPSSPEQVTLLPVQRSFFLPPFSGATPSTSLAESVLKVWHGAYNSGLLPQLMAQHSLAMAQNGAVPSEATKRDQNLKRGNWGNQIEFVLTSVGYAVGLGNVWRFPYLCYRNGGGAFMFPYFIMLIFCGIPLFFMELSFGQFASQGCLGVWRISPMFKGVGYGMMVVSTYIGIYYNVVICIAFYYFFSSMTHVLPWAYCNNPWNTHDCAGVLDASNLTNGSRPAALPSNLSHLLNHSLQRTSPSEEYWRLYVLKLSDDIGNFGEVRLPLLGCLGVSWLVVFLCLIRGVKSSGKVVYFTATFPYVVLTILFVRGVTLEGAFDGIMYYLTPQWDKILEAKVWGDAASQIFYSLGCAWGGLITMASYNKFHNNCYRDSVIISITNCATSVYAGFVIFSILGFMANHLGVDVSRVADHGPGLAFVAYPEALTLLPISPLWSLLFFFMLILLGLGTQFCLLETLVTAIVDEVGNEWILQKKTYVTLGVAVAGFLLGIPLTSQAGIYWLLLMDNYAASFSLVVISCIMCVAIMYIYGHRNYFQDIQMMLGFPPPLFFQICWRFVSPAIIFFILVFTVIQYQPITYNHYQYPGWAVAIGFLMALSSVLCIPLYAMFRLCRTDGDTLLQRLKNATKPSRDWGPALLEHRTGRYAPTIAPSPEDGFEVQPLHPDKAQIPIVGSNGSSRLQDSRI
# experiment: Glycine uptake inhibition experiment ([3H] glycine uptake)
# run parameters: T98G cells (glioma cells) expressing human GlyT1; [3H] glycine 250 nM; 10-min pretreatment, 15 minutes at room temperature; read-out: glycine uptake inhibitory activity (IC50 value)
Hello, just confirming the data are log10 of IC50 with units of nM.

# count of solved cases: 6
{"chemical smiles": "CCOc1ccc(N2C[C@H](C(C)C)N(CC(=O)Nc3cc(Cl)ccn3)C2=O)nc1", "system under test": "human type 1 glycine transporter (GlyT1) (Homo sapiens, UniProt P48067)", "log10(IC50)": 1.65}
{"chemical smiles": "CC(C)[C@H]1CN(c2ncc(F)cn2)C(=O)N1CC(=O)Nc1cc(Cl)ccn1", "system under test": "human type 1 glycine transporter (GlyT1) (Homo sapiens, UniProt P48067)", "log10(IC50)": 2.78}
{"chemical smiles": "O=C(CN1C(=O)N(c2ccc(C(F)(F)F)nc2)C[C@@H]1c1ccccc1)Nc1cccc(C(F)(F)F)c1", "system under test": "human type 1 glycine transporter (GlyT1) (Homo sapiens, UniProt P48067)", "log10(IC50)": 1.85}
{"chemical smiles": "O=C(CN1C(=O)N(c2ccc(C(F)(F)F)nc2)C[C@@H]1CC1CCCCC1)Nc1cccc(C(F)(F)F)c1", "system under test": "human type 1 glycine transporter (GlyT1) (Homo sapiens, UniProt P48067)", "log10(IC50)": 2.82}
{"chemical smiles": "CC(C)[C@H]1CN(c2ncc(C3CC3)cn2)C(=O)N1CC(=O)Nc1cc(C(F)(F)F)ccn1", "system under test": "human type 1 glycine transporter (GlyT1) (Homo sapiens, UniProt P48067)", "log10(IC50)": 1.34}
{"chemical smiles": "CCc1cnc(N2C[C@H](C(C)C)N(CC(=O)Nc3ccc(C(F)(F)F)nc3)C2=O)nc1", "system under test": "human type 1 glycine transporter (GlyT1) (Homo sapiens, UniProt P48067)", "log10(IC50)": 2.38}

Could you tell me log10(IC50) for each of these compounds? They are listed below.
1. CCOc1cnc(N2C[C@H]([C@@H](C)CC)N(CC(=O)Nc3cc(Cl)ccn3)C2=O)nc1
2. O=C(CN1C(=O)N(c2ncc(C(F)(F)F)cc2F)C[C@@H]1CC1CC1)Nc1cc(Cl)ccn1
3. CCOc1cnc(N2C[C@H]([C@@H](F)CC)N(CC(=O)Nc3cc(C(F)(F)F)ccn3)C2=O)nc1

[1.20, 1.63, 1.23]

---

# system under test: human type 1 glycine transporter (GlyT1) (Homo sapiens)
# Construct: T98G cells (glioma cells) expressing human type 1 glycine transporter (GlyT1) were used; endogenous in cells
# experiment: Glycine uptake inhibition experiment ([3H] glycine uptake)
# run parameters: T98G cells (glioma cells) expressing human GlyT1; [3H] glycine 250 nM; 10-min pretreatment, 15 minutes at room temperature; read-out: glycine uptake inhibitory activity (IC50 value)
For each entry below, report its pIC50 value.
One number for each entry, as −log10 of the molar value.

{"compound": "CC(C)[C@H]1CN(c2ccc(C(F)(F)F)nc2)C(=O)N1CC(=O)Nc1cc(C(C)(C)C)no1 [Compound 103]", "pIC50": 6.64}
{"compound": "CC(C)(C)[C@H]1CN(c2ccc(C(F)(F)F)nc2)C(=O)N1CC(=O)Nc1cccc(C(F)(F)F)c1 [Compound 13]", "pIC50": 7.13}
{"compound": "CCc1ccnc(NC(=O)CN2C(=O)N(c3cnc(C(F)(F)F)nc3)C[C@@H]2C(C)C)c1 [Compound 165]", "pIC50": 6.82}
{"compound": "CC(C)[C@H]1CN(c2ccc(C(F)(F)F)nc2)C(=O)N1CC(=O)Nc1nnc(C(F)(F)F)s1 [Compound 54]", "pIC50": 6.10}
{"compound": "CC(C)[C@H]1CN(c2ccc(F)cn2)C(=O)N1CC(=O)Nc1cccc(C(F)(F)F)c1 [Compound 11]", "pIC50": 7.05}

Give one value of pIC50 per listed compound.
1. COC(C)(C)[C@H]1CN(c2ccc(C(F)(F)F)nc2)C(=O)N1CC(=O)Nc1cc(C(F)(F)F)ccn1 [Compound 148]
2. CC(C)[C@H]1CN(c2ncc(Cl)cn2)C(=O)N1CC(=O)Nc1cc(C(F)(F)F)ccn1 [Compound 62]
3. CC(C)[C@H]1CN(c2ccc(C(F)(F)F)nc2)C(=O)N1CC(=O)Nc1cncc(Cl)c1 [Compound 61]
4. CC[C@H](C)[C@H]1CN(c2ncc(C3CC3)cn2)C(=O)N1CC(=O)Nc1cc(Cl)ccn1 [Compound 249]
5. COc1cnc(N2C[C@H](C(C)C)N(CC(=O)Nc3cc(C(F)(F)F)ccn3)C2=O)nc1 [Compound 93]

1. 7.12
2. 7.48
3. 7.28
4. 7.74
5. 7.27

Any idea what pIC50 was measured for CCOc1cnc(N2C[C@H]([C@@H](C)CC)N(CC(=O)Nc3cc(C4CC4)ccn3)C2=O)nc1 [Compound 250] ?
7.62
